Target: T1, acetylcholine binding protein from Lymnaea stagnalis (Lymnaea stagnalis, UniProt P58154 20-229)
T1 construct: also called AChBP; L. stagnalis AChBP
T1 sequence (P58154 20-229): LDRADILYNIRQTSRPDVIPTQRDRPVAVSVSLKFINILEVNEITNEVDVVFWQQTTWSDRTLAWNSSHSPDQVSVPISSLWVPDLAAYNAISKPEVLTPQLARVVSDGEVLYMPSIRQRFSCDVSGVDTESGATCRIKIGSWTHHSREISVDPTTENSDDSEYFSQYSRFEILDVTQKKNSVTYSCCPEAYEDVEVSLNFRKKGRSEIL
Test: MST
Settings: both partners purified
parameter-measured: Kd (nM)
Please state the figure in nM; there is no need to write the unit.

Per the record, HOBDI-BF2–α-CbTx (natural protein) IRCFITPDITSKDCPNGHVCYTKTWCDAFCSIRGKRVDLGCAATCPTVKTGVDIQCCSTDNCNPFPTRKRP has Kd of 194
